Catalogue of compounds with associated pIC50
# EXPERIMENTAL_SYSTEM: JAK3 (Homo sapiens, UniProt P52333)
# Sequence (P52333 1-1124): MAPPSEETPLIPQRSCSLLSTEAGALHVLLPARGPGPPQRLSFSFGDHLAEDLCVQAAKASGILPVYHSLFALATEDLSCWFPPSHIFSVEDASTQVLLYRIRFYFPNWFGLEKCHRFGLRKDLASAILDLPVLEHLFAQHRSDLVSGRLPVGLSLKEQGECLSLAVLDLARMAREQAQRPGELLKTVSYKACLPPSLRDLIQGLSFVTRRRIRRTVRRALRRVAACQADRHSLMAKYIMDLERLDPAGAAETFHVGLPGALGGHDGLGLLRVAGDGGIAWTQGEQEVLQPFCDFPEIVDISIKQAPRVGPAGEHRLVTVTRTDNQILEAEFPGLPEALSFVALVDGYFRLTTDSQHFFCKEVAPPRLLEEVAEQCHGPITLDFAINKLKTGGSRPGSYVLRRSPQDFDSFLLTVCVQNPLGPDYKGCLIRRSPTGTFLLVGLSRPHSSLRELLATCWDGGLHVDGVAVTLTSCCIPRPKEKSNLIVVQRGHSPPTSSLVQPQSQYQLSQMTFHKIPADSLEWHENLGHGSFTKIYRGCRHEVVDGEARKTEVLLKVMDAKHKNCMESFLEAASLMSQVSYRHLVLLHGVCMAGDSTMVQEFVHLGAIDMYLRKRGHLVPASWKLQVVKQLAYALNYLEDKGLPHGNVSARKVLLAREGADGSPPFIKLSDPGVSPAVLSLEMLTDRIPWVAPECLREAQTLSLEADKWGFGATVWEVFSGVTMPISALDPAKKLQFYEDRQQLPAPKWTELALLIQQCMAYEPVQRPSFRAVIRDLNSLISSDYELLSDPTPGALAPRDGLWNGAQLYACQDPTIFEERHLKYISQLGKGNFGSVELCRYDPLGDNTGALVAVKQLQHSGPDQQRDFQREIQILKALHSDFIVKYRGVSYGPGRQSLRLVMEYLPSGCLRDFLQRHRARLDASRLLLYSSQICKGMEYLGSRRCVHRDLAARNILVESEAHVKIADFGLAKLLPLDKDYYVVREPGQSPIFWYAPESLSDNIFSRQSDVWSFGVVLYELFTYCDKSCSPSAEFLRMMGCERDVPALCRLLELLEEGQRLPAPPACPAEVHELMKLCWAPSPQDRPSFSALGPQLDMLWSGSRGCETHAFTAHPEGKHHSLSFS
# PROCEDURE_DETAILS: Inhibition of a panel of kinases, in vitro HotSpot kinase assay: JAK3
# Type: biochemical
# TEST_PARAMETERS: E compounds, Table 17; read-out: IC50 JAK3
pIC50: −log10 of the molar value.

Observe how each entry below is paired with its result.
COMPOUND	pIC50
C=CC(=O)N[C@@H]1CCCN(c2cnc(C(N)=O)c(Nc3ccc(C4CCN(C5CC5)CC4)cc3)n2)[C@@H]1C [Example E-93]	> 8.00
C[C@@H]1[C@H](NC(=O)c2ccc(C3CC3)cc2)CCCN1c1cnc(C(N)=O)c(Nc2ccc(OC3CCN(C)C3)cc2)n1 (some centres unmarked) [Example E-136]	6.00 to 7.00
C=CC(=O)N1CCC[C@@H](Nc2nnc(C(N)=O)c(Nc3cc(C)ns3)n2)C1 [Example E-11]	> 8.00
C=CC(=O)N1CCC[C@@H](N(C)c2cnc(C(N)=O)c(Nc3ccc(C4CCN(C5CCCC5)CC4)cc3)n2)C1 [Example E-125]	> 8.00

Now look at this one.
Consider C[C@@H]1[C@H](NC(=O)c2ccc(C(C)(C)O)cc2)CCCN1c1cnc(C(N)=O)c(Nc2ccc(C3(C)CCN(C4CC4)CC3)cc2)n1 [Example E-147] . Its measured pIC50 is 6.00 to 7.00

* * *

# EXPERIMENTAL_SYSTEM: UniProt:P12931
# Sequence (P12931 whole entry): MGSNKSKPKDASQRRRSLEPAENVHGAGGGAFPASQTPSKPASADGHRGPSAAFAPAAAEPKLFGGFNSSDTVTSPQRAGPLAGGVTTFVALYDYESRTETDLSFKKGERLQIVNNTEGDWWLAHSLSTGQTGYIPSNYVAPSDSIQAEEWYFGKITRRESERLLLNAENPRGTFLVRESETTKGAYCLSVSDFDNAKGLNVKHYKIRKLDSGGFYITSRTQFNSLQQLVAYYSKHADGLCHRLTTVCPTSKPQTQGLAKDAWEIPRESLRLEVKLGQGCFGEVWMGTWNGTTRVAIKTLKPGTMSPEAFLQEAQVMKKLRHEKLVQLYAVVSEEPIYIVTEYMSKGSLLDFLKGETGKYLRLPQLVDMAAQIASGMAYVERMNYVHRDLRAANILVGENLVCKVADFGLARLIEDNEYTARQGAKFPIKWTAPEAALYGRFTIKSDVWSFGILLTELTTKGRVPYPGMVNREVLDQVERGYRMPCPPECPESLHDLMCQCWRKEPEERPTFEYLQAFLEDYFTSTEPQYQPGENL
# PROCEDURE_DETAILS: Inhibition of a panel of kinases, in vitro HotSpot kinase assay: SRC
# Type: biochemical
# TEST_PARAMETERS: E compounds, Table 17
VALUE_TYPE: IC50

Observe how each entry below is paired with its result.
COMPOUND	IC50
C[C@@H]1[C@H](NC(=O)c2ccc3c(c2)C(C)(C)OC3)CCCN1c1cnc(C(N)=O)c(Nc2cnn(C)c2)n1	0.01 to 0.1 µM
CCC(O)(CC)c1ccc(C(=O)N[C@@H]2CCCN(c3cnc(C(N)=O)c(Nc4cnn(C)c4)n3)[C@@H]2C)cc1	0.01 to 0.1 µM
C=CC(=O)N1CCC[C@@H](N(C)c2cnc(C(N)=O)c(Nc3ccc(C4(C)CCN(C5CCCC5)CC4)cc3)n2)C1	≤ 0.01 µM
C[C@@H]1CCN(c2cnc(C(N)=O)c(Nc3cnn(C)c3)n2)C[C@@H]1NC(=O)c1ccc(C2CC2)cc1	> 10 µM

Consider `C=CC(=O)N1CC[C@@H](N(C)c2nnc(C(N)=O)c(Nc3cc(C)ns3)n2)C1` . Its measured IC50 is 0.01 to 0.1 µM

Consider `C[C@@H]1[C@H](NC(=O)c2ccc(C(C)(C)N3CCCC3)cc2)CCCN1c1cnc(C(N)=O)c(Nc2cnn(C)c2)n1` . Its measured IC50 is 0.01 to 0.1 µM

Consider `C=CC(=O)N1CCC[C@@H](Nc2nnc(C(N)=O)c(Nc3ccc(-c4ncccn4)cc3)n2)C1` . Its measured IC50 is 0.1 to 1 µM

Consider `C=CC(=O)N1CCC[C@@H](Nc2nnc(C(N)=O)c(Nc3ccc(C4CCN(C(=O)CC)CC4)cc3)n2)C1` . Its measured IC50 is 0.01 to 0.1 µM

Consider `C=CC(=O)N1CC[C@@H](N(C)c2cnc(C(N)=O)c(Nc3ccc(C4CCN(C5CC5)CC4)cc3)n2)C1` . Its measured IC50 is 0.01 to 0.1 µM

Consider `C=CC(=O)N1CCC[C@@H](Nc2nnc(C(N)=O)c(Nc3cc(C)ns3)n2)C1` . Its measured IC50 is 0.01 to 0.1 µM

Consider `C=CC(=O)N1CCC[C@@H](N(C)c2cnc(C(N)=O)c(Nc3ccc(C(C)C)cc3)n2)C1` . Its measured IC50 is 0.1 to 1 µM

Consider C[C@@H]1[C@H](NC(=O)c2ccc(C3CC3)cc2)CCCN1c1cnc(C(N)=O)c(Nc2ccc(OC3CCN(C)C3)cc2)n1 (some centres unmarked) . Its measured IC50 is 0.01 to 0.1 µM

Consider Cn1cc(Nc2nc(N3CCC4CCN(C(=O)c5ccc(C6CC6)cc5)C4C3)cnc2C(N)=O)cn1 (centres unmarked) . Its measured IC50 is 0.1 to 1 µM

Consider `C[C@@H]1[C@H](NC(=O)c2cccc(C(C)(C)O)c2)CCCN1c1cnc(C(N)=O)c(Nc2cnn(C)c2)n1` . Its measured IC50 is 0.01 to 0.1 µM

* * *

Catalogue of compounds with associated pIC50
# EXPERIMENTAL_SYSTEM: LCK (Homo sapiens)
# Sequence (P06239 whole entry): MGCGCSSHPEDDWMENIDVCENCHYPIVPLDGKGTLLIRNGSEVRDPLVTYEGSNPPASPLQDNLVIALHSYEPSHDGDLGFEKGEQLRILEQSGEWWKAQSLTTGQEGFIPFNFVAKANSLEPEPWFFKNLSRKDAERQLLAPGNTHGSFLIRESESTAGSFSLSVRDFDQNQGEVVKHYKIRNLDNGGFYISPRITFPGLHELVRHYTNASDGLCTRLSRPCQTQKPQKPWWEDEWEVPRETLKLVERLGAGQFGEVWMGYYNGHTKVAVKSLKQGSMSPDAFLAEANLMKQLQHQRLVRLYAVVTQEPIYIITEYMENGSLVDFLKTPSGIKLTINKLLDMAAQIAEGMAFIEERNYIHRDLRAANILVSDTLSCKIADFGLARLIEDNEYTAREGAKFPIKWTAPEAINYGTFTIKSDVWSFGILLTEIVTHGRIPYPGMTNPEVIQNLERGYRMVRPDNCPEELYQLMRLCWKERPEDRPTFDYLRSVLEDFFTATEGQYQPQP
# PROCEDURE_DETAILS: Inhibition of a panel of kinases, in vitro HotSpot kinase assay: LCK
# Format: biochemical
# TEST_PARAMETERS: D-compounds panel data; 1 μM ATP; read-out: IC50 LCK
pIC50: −log10 of the molar value.

COMPOUND	EXPERIMENTAL_SYSTEM	pIC50
C[C@@H]1[C@H](NC(=O)c2ccc(C(C)(C)N(C)C)cc2)CCCN1c1cnc(C(N)=O)c(Nc2cnn(C)c2)n1	LCK (Homo sapiens)	6.00 to 7.00
C[C@@H]1[C@H](NC(=O)c2ccc(C3CC3)cc2)CCCN1c1cnc(C(N)=O)c(Nc2ccc3c(c2)OC(F)(F)O3)n1	LCK (Homo sapiens)	< 5.00
C[C@@H]1[C@H](NC(=O)c2ccc(C3CC3)cc2F)CCCN1c1cnc(C(N)=O)c(Nc2ccc(N3CCN(C)CC3=O)cc2)n1	LCK (Homo sapiens)	6.00 to 7.00
C[C@@H]1[C@H](NC(=O)c2ccc(C3CC3)nc2)CCCN1c1cnc(C(N)=O)c(Nc2cnn(C)c2)n1	LCK (Homo sapiens)	6.00 to 7.00
C[C@@H]1[C@H](NC(=O)c2ccc(C3CC3)cc2)CCCN1c1cnc(C(N)=O)c(Nc2ccc(N3CCCCC3)cc2)n1	LCK (Homo sapiens)	6.00 to 7.00

Consider Cc1cccc(-c2cnc(C3CCCN(c4cnc(C(N)=O)c(Nc5cnn(C)c5)n4)C3)[nH]2)c1 (stereo not shown) . Its measured pIC50 is 6.00 to 7.00

Consider `C[C@@H]1[C@H](NC(=O)N(C)C)CCCN1c1cnc(C(N)=O)c(Nc2ccc(N3CCN(C4CCCC4)CC3)cc2)n1` . Its measured pIC50 is 7.00 to 8.00

Consider `C[C@@H]1[C@H](NC(=O)c2ccc(C(C)(C)O)cc2F)CCCN1c1nnc(C(N)=O)c(Nc2cnn(C)c2)n1` . Its measured pIC50 is 7.00 to 8.00

Consider Cn1cc(Nc2nc(N3C4CCC(NC(=O)c5ccc(C6CC6)cc5)C3CC4)cnc2C(N)=O)cn1 (single isomer, unassigned) [Example D-202] . Its measured pIC50 is 7.00 to 8.00

Consider `Cn1cc(Nc2nc(N3CCC[C@@H](NC(=O)c4ccc(C5CC5)cc4)C3)nnc2C(N)=O)cn1` . Its measured pIC50 is 6.00 to 7.00

All figures here come from patent US20210070748A1.
